- Protocol text: Bioavailability test: pharmacokinetic study of TBN (API) and enteric-coated tablets in beagle dogs
- Assay type: in vivo
- Protocol conditions: beagle, dog, blood, po, 175 mg, oral gavage, Average of 3 animals
Result type: AUC(0-inf) (ng·h/mL)
# value in ng·h/mL; strip the unit string

# input Given the entry Cc1nc(C)c(/C=[N+](\[O-])C(C)(C)C)nc1C [TBN] , report its measured AUC(0-inf).
# output 9580

----------
- Protocol text: Bioavailability test: pharmacokinetic study of TBN (API) and enteric-coated tablets in beagle dogs
- Format: in vivo
- Protocol conditions: beagle, dog, blood, po, 175 mg, oral gavage, individual animal, read-out: Vz/F
Result type: Vd/F (L/kg)
Respond numerically; units are L/kg and should not be typed.

# input Looking for the measured Vd/F of `Cc1nc(C)c(/C=[N+](\[O-])C(C)(C)C)nc1C` , can you help?
# output 1.39

----------
- Protocol text: Pharmacokinetic study of TBN enteric-coated tablets (Example 25 method) and intravenous TBN in beagle dogs
- Assay type: in vivo
- Protocol conditions: both sexes, dog, blood; beagle dogs, intravenous 6 mg · kg^−1, Mean
Result type: half-life (min)
# unit: min | format: bare number

# input Consider the compound `Cc1nc(C)c(/C=[N+](\[O-])C(C)(C)C)nc1C` and give its measured half-life.
# output 17.5

----------
- Protocol text: Pharmacokinetic study of TBN enteric-coated tablets (Example 25 method) and intravenous TBN in beagle dogs
- Format: in vivo
- Protocol conditions: both sexes, dog, blood; beagle dogs, intravenous 6 mg · kg^−1, Mean; read-out: VDSS
Result type: Vd (L/kg)
I only need the number, in L/kg, no unit after it.

# input Using the record for `Cc1nc(C)c(/C=[N+](\[O-])C(C)(C)C)nc1C` , report its Vd.
# output 0.503

----------
- Protocol text: Pharmacokinetic study of TBN enteric-coated tablets (Example 25 method) and intravenous TBN in beagle dogs
- Format: in vivo
- Protocol conditions: both sexes, dog, blood; beagle dogs, intravenous 6 mg · kg^−1, Mean
Result type: clearance (mL/min/kg)
Numeric answer only, unit mL/min/kg assumed.

# input So what's the measured clearance for this one? Cc1nc(C)c(/C=[N+](\[O-])C(C)(C)C)nc1C [TBN]
# output 29.1
